tested.target: TSLP, Q969D9
protocol.description: Kd (SPR)
Reported pKd values for a set of binders
The scale used: pKd is minus the common logarithm of the concentration in molar units.

Here's what some known entries look like.
# binder, pKd
measured = [
    ("unnamed (protein) chain 1: QMQLVESGGGVVQPGRSLRLSCAASGFTFSTYAMHWVRQAPGKGLEWVAVIWYDGSNKHYADSVKGRFTITRDNSKNTLNLQMNSLRAEDTAVYYCARAPRYDDLYEAFDVWGQGTMVTVSS chain 2: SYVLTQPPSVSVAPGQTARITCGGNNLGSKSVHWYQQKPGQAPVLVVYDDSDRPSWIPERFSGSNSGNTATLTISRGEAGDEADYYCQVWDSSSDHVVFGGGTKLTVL", 6.73),
    ("unnamed (protein) chain 1: QMQLVESGGGVVQPGRSLRLSCAASGFTFSTYAMHWVRQAPGKGLEWVAVIWYDGSNKHYADSVKGRFTITRDNSKNTLNLQMNSLRAEDTAVYYCARAPRYDWYWEAFDVWGQGTMVTVSS chain 2: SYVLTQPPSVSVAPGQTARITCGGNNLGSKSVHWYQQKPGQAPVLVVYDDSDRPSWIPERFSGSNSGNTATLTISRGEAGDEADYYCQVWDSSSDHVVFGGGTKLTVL", 6.12),
]

Now turn to the next binder.
Task: Using the record for unnamed (protein) chain 1: QMQLVESGGGVVQPGRSLRLSCAASGFTFRTYGMHWVRQAPGKGLEWVAVIWYDGSNKHYADSVKGRFTITRDNSKNTLNLQMNSLRAEDTAVYYCARAPRYYYYYEAFDVWGQGTMVTVSS chain 2: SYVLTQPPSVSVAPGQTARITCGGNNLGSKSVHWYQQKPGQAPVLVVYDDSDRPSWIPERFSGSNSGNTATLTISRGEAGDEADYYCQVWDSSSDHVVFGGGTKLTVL , report its pKd.
Output: 7.28

The reported measurements were obtained from the FLAb antibody collection (doi:10.1101/2023.12.08.570889).
